Record form. Attribute: protein stability index. Fill in for each entry.
B1: HDAC6 (parent)
chain: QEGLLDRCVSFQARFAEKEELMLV

Variants of: B1
ASSAY REMARKS: protein stability index of a GFP-peptide fusion (GPS, HEK-293T) (PSI 1-6); higher = more stable;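 also: lentivirally expressed fusions sorted by FACS into six bins by GFP to DsRed ratio, PSI derived from sequencing read proportions per bin multiplied by bin number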
APPLIED CONDITIONS: c terminus: a fixed tail appended
Number only, no unit.

// recorded protein stability index for R7N : 2.13

// recorded protein stability index for M22V : 1.92

// recorded protein stability index for C8V : 2.17

// recorded protein stability index for A13G : 1.85

// recorded protein stability index for E17S : 1.7

// recorded protein stability index for R14I : 2.35

// recorded protein stability index for E17G : 1.95

// recorded protein stability index for D6E : 1.84

// recorded protein stability index for L4F : 2.47

// recorded protein stability index for L5V : 2.06

// recorded protein stability index for V24G : 3.62

// recorded protein stability index for C8E : 2.04

// recorded protein stability index for L21C : 2.18

// recorded protein stability index for E17N : 1.68

// recorded protein stability index for Q12T : 1.99

// recorded protein stability index for Q12K : 2

// recorded protein stability index for K18N : 1.77

// recorded protein stability index for R7K : 1.43

// recorded protein stability index for V9I : 2.44

// recorded protein stability index for Q12D : 1.87

// recorded protein stability index for A13N : 1.89

// recorded protein stability index for C8D : 1.77
